testTarget: human fatty acid synthase FASN (Homo sapiens (Human), UniProt P49327)
Sequence (P49327 whole entry): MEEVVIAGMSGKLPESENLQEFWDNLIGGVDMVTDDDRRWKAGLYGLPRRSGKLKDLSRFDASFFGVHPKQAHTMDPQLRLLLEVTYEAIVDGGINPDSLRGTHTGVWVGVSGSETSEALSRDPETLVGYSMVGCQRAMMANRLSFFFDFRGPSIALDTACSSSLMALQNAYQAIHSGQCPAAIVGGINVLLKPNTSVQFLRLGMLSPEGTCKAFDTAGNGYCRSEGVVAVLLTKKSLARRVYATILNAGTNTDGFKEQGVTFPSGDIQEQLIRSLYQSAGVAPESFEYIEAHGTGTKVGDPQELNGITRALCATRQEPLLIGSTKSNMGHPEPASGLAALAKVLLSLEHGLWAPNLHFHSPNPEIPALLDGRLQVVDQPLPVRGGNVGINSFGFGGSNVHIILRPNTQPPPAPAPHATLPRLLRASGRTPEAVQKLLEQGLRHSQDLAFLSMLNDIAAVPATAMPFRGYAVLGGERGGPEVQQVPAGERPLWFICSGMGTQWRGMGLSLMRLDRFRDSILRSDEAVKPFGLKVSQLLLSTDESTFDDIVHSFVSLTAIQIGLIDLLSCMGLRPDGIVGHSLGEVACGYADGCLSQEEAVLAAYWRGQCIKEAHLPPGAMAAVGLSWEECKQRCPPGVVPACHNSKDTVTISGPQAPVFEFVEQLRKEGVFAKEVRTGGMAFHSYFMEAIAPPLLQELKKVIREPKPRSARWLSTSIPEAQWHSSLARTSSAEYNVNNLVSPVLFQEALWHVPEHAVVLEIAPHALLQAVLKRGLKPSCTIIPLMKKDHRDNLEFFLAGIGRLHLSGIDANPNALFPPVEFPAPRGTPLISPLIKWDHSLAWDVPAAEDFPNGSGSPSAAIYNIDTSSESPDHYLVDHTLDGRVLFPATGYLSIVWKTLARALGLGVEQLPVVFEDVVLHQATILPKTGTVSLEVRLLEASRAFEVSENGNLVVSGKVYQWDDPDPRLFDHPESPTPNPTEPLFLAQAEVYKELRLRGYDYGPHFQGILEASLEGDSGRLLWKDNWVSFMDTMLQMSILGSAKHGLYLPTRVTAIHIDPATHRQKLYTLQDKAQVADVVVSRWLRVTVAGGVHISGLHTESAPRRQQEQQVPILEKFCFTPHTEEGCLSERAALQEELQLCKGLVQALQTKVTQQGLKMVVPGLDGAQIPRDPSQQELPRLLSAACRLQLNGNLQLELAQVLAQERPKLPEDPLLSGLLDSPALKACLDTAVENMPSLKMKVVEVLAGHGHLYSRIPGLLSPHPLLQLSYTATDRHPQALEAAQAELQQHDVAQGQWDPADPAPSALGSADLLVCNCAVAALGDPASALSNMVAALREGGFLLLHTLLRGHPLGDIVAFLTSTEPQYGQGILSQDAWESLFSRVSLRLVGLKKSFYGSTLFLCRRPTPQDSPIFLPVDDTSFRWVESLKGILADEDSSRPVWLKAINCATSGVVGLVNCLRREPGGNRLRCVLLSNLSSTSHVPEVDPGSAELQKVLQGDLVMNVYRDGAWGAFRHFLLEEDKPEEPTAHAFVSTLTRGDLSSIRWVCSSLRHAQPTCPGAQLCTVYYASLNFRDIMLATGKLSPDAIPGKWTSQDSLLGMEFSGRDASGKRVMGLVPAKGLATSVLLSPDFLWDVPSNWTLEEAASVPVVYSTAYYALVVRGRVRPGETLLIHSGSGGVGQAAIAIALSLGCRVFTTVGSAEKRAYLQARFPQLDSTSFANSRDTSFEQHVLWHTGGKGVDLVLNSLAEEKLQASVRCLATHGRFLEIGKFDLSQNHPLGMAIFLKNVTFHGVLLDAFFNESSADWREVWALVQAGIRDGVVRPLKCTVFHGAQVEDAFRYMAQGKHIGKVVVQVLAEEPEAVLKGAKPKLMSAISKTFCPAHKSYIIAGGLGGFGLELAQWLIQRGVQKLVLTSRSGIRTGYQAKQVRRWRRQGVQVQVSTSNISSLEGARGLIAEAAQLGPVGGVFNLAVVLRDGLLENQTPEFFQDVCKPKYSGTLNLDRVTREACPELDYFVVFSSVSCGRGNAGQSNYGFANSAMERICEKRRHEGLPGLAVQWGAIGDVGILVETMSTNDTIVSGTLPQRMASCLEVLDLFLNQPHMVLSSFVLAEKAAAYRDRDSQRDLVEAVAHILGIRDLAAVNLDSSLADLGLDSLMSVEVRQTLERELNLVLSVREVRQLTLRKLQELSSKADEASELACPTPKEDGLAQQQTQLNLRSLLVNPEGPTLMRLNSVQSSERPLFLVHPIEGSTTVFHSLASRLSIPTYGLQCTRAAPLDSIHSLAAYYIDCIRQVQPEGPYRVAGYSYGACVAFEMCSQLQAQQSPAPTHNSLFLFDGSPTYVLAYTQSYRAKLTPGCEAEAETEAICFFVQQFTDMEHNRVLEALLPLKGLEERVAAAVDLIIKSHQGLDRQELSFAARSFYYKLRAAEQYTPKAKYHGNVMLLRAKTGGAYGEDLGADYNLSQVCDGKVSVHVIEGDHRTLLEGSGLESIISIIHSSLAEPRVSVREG
protocolText: Biochemical activity testing of human fatty acid synthase FASN (NADPH fluorescence intensity enzyme assay)
condition: human recombinant full-length fatty acid synthase
Each entry below carries its recorded IC50.

// solved cases for IC50 follow
CC[C@@H](C)CC(=O)N[C@H]1CC[C@@H](N(C)C(=O)c2ccc(-c3nc4ccccc4o3)cc2)C1 [Compound A31]; < 300 nM
CCC(=O)N[C@H]1CC[C@@H](N(C)C(=O)c2ccc(-c3ccc(F)cc3F)cc2)C1 [Compound A83]; < 300 nM
CCC(=O)N[C@H]1CC[C@@H](N(C)C(=O)c2ccc(-c3ccc4[nH]cc(C(N)=O)c4c3)c(F)c2)C1 [Compound A160]; < 300 nM

Could you now look at the following molecule, please?
Name the recorded IC50 of the molecule listed here: CCCC1CCC(c2ccc(-c3ccc(C(=O)N(C)[C@@H]4CC[C@H](NC(=O)CC)C4)cc3)cc2)OC1 (stereo partly shown) [Compound A89]
300 to 3000 nM

###

testTarget: human fatty acid synthase FASN (Homo sapiens (Human))
protocolText: Biochemical activity testing of human fatty acid synthase FASN (NADPH fluorescence intensity enzyme assay)
condition: human recombinant full-length fatty acid synthase
pIC50: −log10 of the molar value.
Each entry below carries its recorded pIC50.

// solved cases for pIC50 follow
CCC(=O)N[C@H]1CC[C@@H](N(C)C(=O)c2ccc(-c3ccc(C#N)c(F)c3)cc2)C1; > 6.52
CCC(=O)N[C@H]1CC[C@@H](N(C)C(=O)c2ccc(-c3ccc4[nH]ccc4c3)cc2C)C1; > 6.52
CCC(=O)N[C@H]1CC[C@@H](N(C)C(=O)c2cnc(-c3nc4ccc(Cl)cc4o3)cn2)C1; 5.52 to 6.52
CCC(=O)N[C@H]1CC[C@@H](N(C)C(=O)c2ccc(-c3ccc4c(c3)c(CN)cn4C)cc2)C1; > 6.52
CCC(=O)N[C@H]1CC[C@@H](N(C)C(=O)c2ccc(-c3ccc4cn[nH]c4c3)cc2)C1; > 6.52

Name the recorded pIC50 of the molecule listed here: `CN(C(=O)c1ccc(-c2nc3ccccc3o2)cc1)[C@@H]1CC[C@H](NC(=O)C(F)(F)C(F)(F)F)C1`
5.52 to 6.52

Name the recorded pIC50 of the molecule listed here: `CCC(=O)N[C@H]1CC[C@@H](N(C)C(=O)c2ccc(-c3nc4ccccc4[nH]3)cc2)C1`
> 6.52

Name the recorded pIC50 of the molecule listed here: `CN(C(=O)c1ccc(-c2nc3ccccc3o2)cc1)[C@@H]1CC[C@H](NC(=O)C2CCCC2)C1`
> 6.52

Name the recorded pIC50 of the molecule listed here: `CCC(=O)N[C@H]1CC[C@@H](N(C)C(=O)c2ccc(-c3ccc4[nH]ccc4c3C)nn2)C1`
> 6.52

Name the recorded pIC50 of the molecule listed here: `CCC(=O)N[C@H]1CC[C@@H](N(C)C(=O)c2ccc(-c3ccc(OCC4CC4)cc3)cc2)C1`
> 6.52

###

Each entry below carries its recorded IC50.
testTarget: human fatty acid synthase FASN (Homo sapiens (Human))
protocolText: Biochemical activity testing of human fatty acid synthase FASN (NADPH fluorescence intensity enzyme assay)
condition: human recombinant full-length fatty acid synthase

// solved cases for IC50 follow
CCC(=O)N[C@H]1CC[C@@H](N(C)C(=O)c2ccc(-c3cnc4ccccc4c3)cc2)C1 [Compound A72]; < 300 nM
CCC(=O)N[C@H]1CC[C@@H](N(C)C(=O)c2ccc(-c3nc4cc(Cl)ccc4o3)cc2)C1 [Compound A9]; < 300 nM
CCC(=O)N[C@H]1CC[C@@H](N(C)C(=O)c2ccc(-c3ncc[nH]3)cc2)C1 [Compound A11]; 3000 to 50000 nM
CCC(=O)N[C@H]1CC[C@@H](N(C)C(=O)c2ccc(-c3nc4ccccc4n3C)cc2)C1 [Compound A123]; < 300 nM
CCC(=O)N[C@H]1CC[C@@H](N(C)C(=O)c2ccc(-c3ccc4[nH]ccc4c3)nn2)C1 [Compound A113]; < 300 nM

Name the recorded IC50 of the compound listed here: CN(C(=O)c1ccc(-c2nc3ccccc3o2)cc1)[C@@H]1CC[C@H](NC(=O)C[C@@H]2CCC(=O)N2)C1 [Compound A45]
3000 to 50000 nM

Name the recorded IC50 of the compound listed here: CCC(=O)N[C@H]1CC[C@@H](N(C)C(=O)c2ccc(-c3ccc(C)cc3)cc2)C1 [Compound A73]
< 300 nM

###

testTarget: human fatty acid synthase FASN (Homo sapiens (Human))
protocolText: Biochemical activity testing of human fatty acid synthase FASN (NADPH fluorescence intensity enzyme assay)
condition: human recombinant full-length fatty acid synthase
pIC50: −log10 of the molar value.
quantityName: pIC50

CCC(=O)N[C@H]1CC[C@@H](N(C)C(=O)c2ccc(-c3ccc(C4CCC(C)CC4)cc3F)cc2)C1 (stereo partly shown) [Compound A54]; 5.52 to 6.52

Name the recorded pIC50 of the compound listed here: CCC(=O)N[C@H]1CC[C@@H](N(C)C(=O)c2ccc(-c3ccc4[nH]nnc4c3)cc2)C1 [Compound A91]
> 6.52

Name the recorded pIC50 of the compound listed here: CC[C@H](C)CC(=O)N[C@H]1CC[C@@H](N(C)C(=O)c2ccc(-c3nc4ccccc4o3)cc2)C1 [Compound A30]
> 6.52

Name the recorded pIC50 of the compound listed here: CCC(=O)N[C@H]1CC[C@@H](N(C)C(=O)c2ccc(-c3cc4cn[nH]c4cc3C)cc2)C1 [Compound A102]
> 6.52

Name the recorded pIC50 of the compound listed here: CCC(=O)N[C@H]1CC[C@@H](N(C)C(=O)c2cnc(-c3ccc4[nH]ccc4c3F)cc2C)C1 [Compound A146]
> 6.52

Name the recorded pIC50 of the compound listed here: CN(C(=O)c1ccc(-c2nc3ccccc3o2)cc1)[C@@H]1CC[C@H](NC(=O)c2ccncc2)C1 [Compound A22]
5.52 to 6.52

Name the recorded pIC50 of the compound listed here: CCC(=O)N[C@H]1CC[C@@H](N(C)C(=O)c2ccc(-c3ccc4[nH]ccc4c3)c(F)c2)C1 [Compound A112]
> 6.52

###

testTarget: human fatty acid synthase FASN (Homo sapiens (Human), UniProt P49327)
protocolText: Biochemical activity testing of human fatty acid synthase FASN (NADPH fluorescence intensity enzyme assay)
condition: human recombinant full-length fatty acid synthase
quantityName: IC50

// solved cases for IC50 follow
CCC(=O)N[C@H]1CC[C@@H](N(C)C(=O)c2ccc(-c3ccc4cc[nH]c4c3F)nc2)C1 [Compound A157]; < 300 nM
CCC(=O)N[C@H]1CC[C@@H](N(C)C(=O)c2ccc(-c3ccc(OC(F)(F)F)c(F)c3)cc2)C1 [Compound A98]; < 300 nM
CN(C(=O)c1ccc(-c2nc3cccc(F)c3o2)cc1)[C@@H]1CC[C@H](NC(=O)C2CC2)C1 [Compound A50]; 300 to 3000 nM
CCC(=O)N[C@H]1CC[C@@H](N(C)C(=O)c2ccc(-c3nc4ccc(Cl)cc4o3)nc2)C1 [Compound A153]; < 300 nM
CN(C(=O)c1ccc(-c2nc3cc(Cl)ccc3o2)cc1)[C@@H]1CC[C@H](NC(=O)[C@@H]2CCCO2)C1 [Compound A174]; < 300 nM
CCC(=O)N[C@H]1CC[C@@H](N(C)C(=O)c2ccc(-c3ccncc3)cc2)C1 [Compound A4]; < 300 nM

Could you now look at the following compound, please?
Name the recorded IC50 of the compound listed here: CN(C(=O)c1ccc(-c2nc3ccccc3o2)cc1)[C@@H]1CC[C@H](NC(=O)CC2CCCC2)C1 [Compound A44]
< 300 nM

###

testTarget: human fatty acid synthase FASN (Homo sapiens (Human))
protocolText: Biochemical activity testing of human fatty acid synthase FASN (NADPH fluorescence intensity enzyme assay)
condition: human recombinant full-length fatty acid synthase
Each entry below carries its recorded IC50.

// solved cases for IC50 follow
CCC(=O)N[C@H]1CC[C@@H](N(C)C(=O)c2ccc(-c3ccc(C(=O)O)cc3)cc2)C1; < 300 nM
CCC(=O)N[C@H]1CC[C@@H](N(C)C(=O)c2ccc(-c3ccc4[nH]ccc4c3F)c(F)c2)C1; < 300 nM
CCC(=O)N[C@H]1CC[C@@H](N(C)C(=O)c2ccc(-c3cn4cccnc4n3)cc2)C1; < 300 nM
COC(=O)[C@H](CC(=O)N[C@H]1CC[C@@H](N(C)C(=O)c2ccc(-c3nc4ccccc4o3)cc2)C1)NC(C)=O; 300 to 3000 nM
CN(C)CC(=O)N[C@H]1CC[C@@H](N(C)C(=O)c2ccc(-c3nc4ccccc4o3)cc2)C1; 300 to 3000 nM

Name the recorded IC50 of the compound listed here: `CCC(=O)N[C@H]1CC[C@@H](N(C)C(=O)c2ccc(-c3nc4ccccc4o3)cc2)C1`
< 300 nM

Name the recorded IC50 of the compound listed here: `CCC(=O)N[C@H]1CC[C@@H](N(C)C(=O)c2ccc(-c3nc4ccc(Cl)cc4o3)nn2)C1`
3000 to 50000 nM
